Test: Cytotoxicity against human MCF-10A cells assessed as inhibition of cell proliferation incubated for 72 hrs by CCK8 assay
Type: toxicity, cell-based
Provide the reported IC50 at 72 h of each item.
Record the value in µM, omitting the unit from your answer.

Which IC50 at 72 h value is on record for Cc1cccc(OS(=O)(=O)C2CC3OC2C(c2ccc(NC(=O)CCCCC[Se]C#N)cc2)=C3c2ccc(O)cc2)c1 (centres undefined) ? 30.2

Which IC50 at 72 h value is on record for N#C[Se]CCCCCC(=O)Nc1ccc(C2=C(c3ccc(O)cc3)C3CC(S(=O)(=O)Oc4ccc(Cl)cc4)C2O3)cc1 (centres undefined) ? 11.8

Which IC50 at 72 h value is on record for CCN(c1ccccc1Cl)S(=O)(=O)C1CC2OC1C(c1ccc(NC(=O)CCCCC[Se]C#N)cc1)=C2c1ccc(O)cc1 (centres undefined) ? 17.3

---

Target: Estrogen receptor beta (Homo sapiens)
Assay: Binding affinity to human ERbeta assessed as relative binding affinity incubated under vibration for 1 min followed by 2 hrs incubation under dark condition by fluorescence polarization assay relative to estradiol
Conditions: time 121.0 min
Would you mind labelling by RBA? At or over 0.2% is Satisfied, under is Not satisfied.

Can N#C[Se]CC(=O)Nc1ccc(C2=C(c3ccc(O)cc3)C3CC(S(=O)(=O)Oc4ccccc4)C2O3)cc1 (configuration not stated) be said to have RBA at or above 0.2%? Satisfied

Can CCN(c1ccc(OC)cc1)S(=O)(=O)C1CC2OC1C(c1ccc(NC(=O)CCCCCCC[Se]C#N)cc1)=C2c1ccc(O)cc1 (configuration not stated) be said to have RBA at or above 0.2%? Not satisfied

Can N#C[Se]CCCCCC(=O)Nc1ccc(C2=C(c3ccc(O)cc3)C3CC(S(=O)(=O)Oc4ccccc4F)C2O3)cc1 (configuration not stated) be said to have RBA at or above 0.2%? Satisfied

Can COc1ccc(N(CC(F)(F)F)S(=O)(=O)C2CC3OC2C(c2ccc(NC(=O)CCCCC[Se]C#N)cc2)=C3c2ccc(O)cc2)cc1 (configuration not stated) be said to have RBA at or above 0.2%? Not satisfied

Can COc1ccc(OS(=O)(=O)C2CC3OC2C(c2ccc(NC(=O)CCCCC[Se]C#N)cc2)=C3c2ccc(O)cc2)cc1 (configuration not stated) be said to have RBA at or above 0.2%? Not satisfied

Can COc1ccc(N(CC(F)(F)F)S(=O)(=O)C2CC3OC2C(c2ccc(NC(=O)CCC[Se]C#N)cc2)=C3c2ccc(O)cc2)cc1 (configuration not stated) be said to have RBA at or above 0.2%? Satisfied

Can Cc1ccccc1OS(=O)(=O)C1CC2OC1C(c1ccc(NC(=O)CCCCC[Se]C#N)cc1)=C2c1ccc(O)cc1 (configuration not stated) be said to have RBA at or above 0.2%? Satisfied

---

Target: Estrogen receptor beta (Homo sapiens) (UniProt Q92731)
Sequence (Q92731 whole entry): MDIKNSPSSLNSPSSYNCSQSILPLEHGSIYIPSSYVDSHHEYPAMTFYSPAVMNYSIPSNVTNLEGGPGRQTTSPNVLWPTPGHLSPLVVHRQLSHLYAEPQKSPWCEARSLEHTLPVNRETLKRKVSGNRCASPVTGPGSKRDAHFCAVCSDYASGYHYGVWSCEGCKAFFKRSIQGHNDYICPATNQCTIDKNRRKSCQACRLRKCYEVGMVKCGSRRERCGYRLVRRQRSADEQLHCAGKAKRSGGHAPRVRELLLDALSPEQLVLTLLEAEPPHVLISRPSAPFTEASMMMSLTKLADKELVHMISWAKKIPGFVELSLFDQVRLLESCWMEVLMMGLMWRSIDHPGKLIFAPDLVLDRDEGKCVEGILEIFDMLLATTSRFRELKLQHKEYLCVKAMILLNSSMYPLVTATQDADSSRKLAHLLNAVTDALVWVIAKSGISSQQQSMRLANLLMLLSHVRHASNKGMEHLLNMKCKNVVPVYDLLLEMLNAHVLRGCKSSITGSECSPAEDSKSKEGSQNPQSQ
Test: Binding affinity to human ERbeta assessed as relative binding affinity incubated under vibration for 1 min followed by 2 hrs incubation under dark condition by fluorescence polarization assay relative to estradiol
Conditions: time 121.0 min
Using RBA as the sorting value, the categories are low range (below 0.1%), mid range (0.1% to below 1%), high range (1% or more)

Which bin, given its RBA, does N#C[Se]CCCCCCOc1ccc(OS(=O)(=O)C2CC3OC2C(c2ccc(O)cc2)=C3c2ccc(O)cc2)cc1 (stereo not given) occupy? high range

Which bin, given its RBA, does N#C[Se]CCCCCC(=O)Nc1ccc(C2=C(c3ccc(O)cc3)C3CC(S(=O)(=O)Oc4ccc5ccccc5c4)C2O3)cc1 (stereo not given) occupy? mid range

Which bin, given its RBA, does CCN(c1cccc(Cl)c1)S(=O)(=O)C1CC2OC1C(c1ccc(NC(=O)CCCCC[Se]C#N)cc1)=C2c1ccc(O)cc1 (stereo not given) occupy? low range

Which bin, given its RBA, does CCN(c1cccc(OC)c1)S(=O)(=O)C1CC2OC1C(c1ccc(NC(=O)CCCCC[Se]C#N)cc1)=C2c1ccc(O)cc1 (stereo not given) occupy? mid range

Which bin, given its RBA, does CCN(c1ccccc1Cl)S(=O)(=O)C1CC2OC1C(c1ccc(NC(=O)CCCCC[Se]C#N)cc1)=C2c1ccc(O)cc1 (stereo not given) occupy? low range

Which bin, given its RBA, does N#C[Se]CCCCCCCC(=O)Nc1ccc(C2=C(c3ccc(O)cc3)C3CC(S(=O)(=O)Oc4ccccc4)C2O3)cc1 (stereo not given) occupy? high range

Which bin, given its RBA, does N#C[Se]CCCCCC(=O)Nc1ccc(C2=C(c3ccc(O)cc3)C3CC(S(=O)(=O)Oc4cccc(F)c4)C2O3)cc1 (stereo not given) occupy? mid range

Which bin, given its RBA, does N#C[Se]CCCCCC(=O)Nc1ccc(C2=C(c3ccc(O)cc3)C3CC(S(=O)(=O)Oc4cccc(O)c4)C2O3)cc1 (stereo not given) occupy? mid range

Which bin, given its RBA, does N#C[Se]CCCCCC(=O)Nc1ccc(C2=C(c3ccc(O)cc3)C3CC(S(=O)(=O)Oc4ccc(C(F)(F)F)cc4)C2O3)cc1 (stereo not given) occupy? high range

Which bin, given its RBA, does CCN(c1cccc(F)c1)S(=O)(=O)C1CC2OC1C(c1ccc(NC(=O)CCCCC[Se]C#N)cc1)=C2c1ccc(O)cc1 (stereo not given) occupy? low range

Which bin, given its RBA, does CCN(c1ccccc1OC)S(=O)(=O)C1CC2OC1C(c1ccc(NC(=O)CCCCC[Se]C#N)cc1)=C2c1ccc(O)cc1 (stereo not given) occupy? low range

Which bin, given its RBA, does COc1cccc(N(CC(F)(F)F)S(=O)(=O)C2CC3OC2C(c2ccc(NC(=O)CCCCC[Se]C#N)cc2)=C3c2ccc(O)cc2)c1 (stereo not given) occupy? mid range

Which bin, given its RBA, does N#C[Se]CCCCCC(=O)Nc1ccc(C2=C(c3ccc(O)cc3)C3CC(S(=O)(=O)Oc4ccccc4C(F)(F)F)C2O3)cc1 (stereo not given) occupy? high range

Which bin, given its RBA, does N#C[Se]CCCCCC(=O)Nc1ccc(C2=C(c3ccc(O)cc3)C3CC(S(=O)(=O)Oc4ccccc4Cl)C2O3)cc1 (stereo not given) occupy? high range

Which bin, given its RBA, does N#C[Se]CCCCCC(=O)Nc1ccc(C2=C(c3ccc(O)cc3)C3CC(S(=O)(=O)Oc4ccccc4O)C2O3)cc1 (stereo not given) occupy? high range

Which bin, given its RBA, does N#C[Se]CCCC(=O)Nc1ccc(C2=C(c3ccc(O)cc3)C3CC(S(=O)(=O)Oc4ccccc4)C2O3)cc1 (stereo not given) occupy? high range

Which bin, given its RBA, does CCN(c1ccc(OC)cc1)S(=O)(=O)C1CC2OC1C(c1ccc(NC(=O)CCC[Se]C#N)cc1)=C2c1ccc(O)cc1 (stereo not given) occupy? mid range

Which bin, given its RBA, does N#C[Se]CCCCCC(=O)Nc1ccc(C2=C(c3ccc(O)cc3)C3CC(S(=O)(=O)Oc4ccc(O)cc4)C2O3)cc1 (stereo not given) occupy? mid range

Which bin, given its RBA, does N#C[Se]CCCCCC(=O)Nc1ccc(C2=C(c3ccc(O)cc3)C3CC(S(=O)(=O)Oc4ccc(F)cc4)C2O3)cc1 (stereo not given) occupy? high range

Which bin, given its RBA, does COc1ccc(N(CC(F)(F)F)S(=O)(=O)C2CC3OC2C(c2ccc(O)cc2)=C3c2ccc(O)cc2)cc1 (stereo not given) occupy? low range

Which bin, given its RBA, does Cc1ccc(OS(=O)(=O)C2CC3OC2C(c2ccc(NC(=O)CCCCC[Se]C#N)cc2)=C3c2ccc(O)cc2)cc1 (stereo not given) occupy? high range

Which bin, given its RBA, does N#C[Se]CCCCCC(=O)Nc1ccc(C2=C(c3ccc(O)cc3)C3CC(S(=O)(=O)N(CC(F)(F)F)c4ccc(F)cc4)C2O3)cc1 (stereo not given) occupy? mid range

---

Target: Estrogen receptor (Homo sapiens)
Sequence (P03372 whole entry): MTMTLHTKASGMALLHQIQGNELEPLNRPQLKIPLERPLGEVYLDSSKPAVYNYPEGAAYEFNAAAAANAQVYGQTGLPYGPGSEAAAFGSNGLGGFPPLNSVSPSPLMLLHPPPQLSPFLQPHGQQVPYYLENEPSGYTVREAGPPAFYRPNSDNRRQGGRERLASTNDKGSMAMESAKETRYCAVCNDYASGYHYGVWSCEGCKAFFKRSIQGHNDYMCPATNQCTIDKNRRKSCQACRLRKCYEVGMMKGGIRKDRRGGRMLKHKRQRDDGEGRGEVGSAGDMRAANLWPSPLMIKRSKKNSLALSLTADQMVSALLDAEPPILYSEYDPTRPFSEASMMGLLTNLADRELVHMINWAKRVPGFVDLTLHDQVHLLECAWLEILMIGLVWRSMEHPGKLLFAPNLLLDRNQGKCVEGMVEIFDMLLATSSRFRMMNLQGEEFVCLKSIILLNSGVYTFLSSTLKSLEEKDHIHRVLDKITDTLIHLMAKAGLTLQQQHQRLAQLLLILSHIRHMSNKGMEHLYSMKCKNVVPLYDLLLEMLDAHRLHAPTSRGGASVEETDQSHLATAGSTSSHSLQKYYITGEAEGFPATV
Experiment: Antagonist activity at ERalpha (unknown origin) expressed in HEK293T cells co-expressing ERbeta and ERE-luciferase reporter assessed as reduction in relative light unit incubated for 24 hrs by dual-luciferase reporter assay
readoutLabel: IC50 (nM)
Record the value in nM, omitting the unit from your answer.

Requested read-out IC50, target or system Estrogen receptor (Homo sapiens), entry N#C[Se]CCCCCC(=O)Nc1ccc(C2=C(c3ccc(O)cc3)C3CC(S(=O)(=O)Oc4ccccc4F)C2O3)cc1 (configuration not stated) 1010

Requested read-out IC50, target or system Estrogen receptor (Homo sapiens), entry N#C[Se]CCCCCC(=O)Nc1ccc(C2=C(c3ccc(O)cc3)C3CC(S(=O)(=O)N(CC(F)(F)F)c4ccccc4F)C2O3)cc1 (configuration not stated) 56
